System: 786-0 renal
Assay: NCI-60 one-dose screen, 48 h
Conditions: 10 µM unless noted
About 83,000 compounds went through this panel and 20% of them were active in at least one assay; those are over-represented in the sample as a whole. Calls of active or inactive are those of the source. The calls were made as follows: active = growth percent below 10; inactive = the rest.
// one of active, inactive, no free text

Solved cases below.
molecule: COC1=C(C)C(=O)N2[C@@H]1[C@H](c1ccccc1)OC21C=CC(=O)C=C1
class.label: active
--
molecule: N[C@H]1CCC[C@@H]1NCCCCN1C(=O)c2cccc3cc([N+](=O)[O-])cc(c23)C1=O
class.label: inactive
--
molecule: OCCNCCNC(Cc1ccc(Cl)cc1)c1ccccc1 (centres undefined)
class.label: inactive
--
molecule: C=C1C(=O)O[C@H]2[C@H]1CC/C(COC(=O)NCc1ccc(Cn3c(=O)sn(-c4ccc(C#N)cc4)c3=O)cc1)=C\CC[C@@]1(C)O[C@@H]21
class.label: inactive
--
molecule: Cn1ccc(=O)nc1
class.label: inactive

query: Any idea what this test logged for COCCn1cc(-c2csc(-c3c[nH]c4ccc(Br)cc34)n2)c2cccnc21 ?
result: active

query: Any idea what this test logged for O=S(=O)(NCCCNc1nccc(-c2c(-c3cccc(F)c3)nc3occn23)n1)c1ccc(F)cc1 ?
result: inactive

query: Any idea what this test logged for CC(=O)OC[C@]12CC[C@@H]([C@@H](C)c3nnc(-c4ccncc4)o3)[C@@H]1[C@H]1CC[C@@H]3[C@@]4(C)CC[C@H](OC(C)=O)C(C)(C)[C@@H]4CC[C@@]3(C)[C@]1(C)CC2 ?
result: inactive

query: Any idea what this test logged for CNC(=O)c1ccccc1Nc1nc(Nc2cc(OC)c(OC)c(OC)c2)ncc1Br ?
result: active
